Test system: XF498
MEASUREMENT NOTES: NCI tumour cell line growth inhibition, 48 h
Active and inactive are the calls of the source. No stated cut-off is given here; in the data, active = GI50 up to about 1.1 µM and inactive = higher.
Lab note: assign the record to one of active, inactive

Query: GET /call?item= Cc1csc2nc(-c3ccncc3)cn12 returns the recorded outcome of this test.
Result: inactive

Query: For C=C(CN(C)C)C(=O)c1ccccc1[N+](=O)[O-] , which call appears in the assay record?
Result: inactive

Query: # fetch the recorded call for CN1CCCc2nc3ccccc3n2C1 here
Result: inactive

Query: # outcome recorded in this test, key = Brc1ccc2ns[s+]c2c1
Result: inactive

Query: Field: outcome | Entry: Oc1ccc2c3c1OC1C(=NN=C4CCC5(O)C6Cc7ccc(O)c8c7C5(CCN6CC5CC5)C4O8)CCC4(O)C(C2)N(CC2CC2)CCC314 (stereo unspecified)
Result: inactive

Query: What did the test return for Cn1c(=O)nc2n(-c3ccc(F)c(F)c3)c3ccccc3nc-2c1=O ?
Result: inactive

Query: Can you look up the reported call for COC(=O)C1CCc2nnc(-c3ccccc3)n21 (stereo unspecified) for me?
Result: inactive

Query: For this compound, state the assay outcome: CCOP(=O)(OCC)C1C(=O)O[C@H]2CCCC[C@@H]12 (stereo partly specified)
Result: inactive

Query: What was the test verdict on COC(=O)C(=O)C(C(C)=O)C(=O)NCc1ccc(OC)c(OC)c1 (stereo unspecified) ?
Result: inactive

Query: For Cc1cn(C2CC(O)C(CO)C2C)c(=O)[nH]c1=O (stereo unspecified) , which call appears in the assay record?
Result: inactive

Query: Call for entry Nc1ncnc2c1sc(=S)n2-c1ccccc1 :
Result: inactive

Query: I'd appreciate the recorded outcome for CC1=C(N2CC2)C(=O)C(C)=C(N2CC2)C1=O from this test.
Result: active

Query: Please indicate how the test categorized COC1=C2CC(C)CC(OC)C(O)C(C)/C=C(\C)C(OC(N)=O)C(OC)/C=C\C=C(/C)C(=O)NC(=C(/C=N/C(C)(C)C)C1=O)C2=O (stereo unspecified) .
Result: active

Query: What classification did COc1nc2c(nc(N)n2C2OCC(O)C(O)C2O)c(=O)n1C (stereo unspecified) end up with in this test?
Result: inactive

Query: So what was the verdict on CCNc1cnc2c(n1)c(=O)n(C)c(=O)n2C in this test?
Result: inactive

Query: What is the recorded call for this compound in the test? C=C1C[C@@H]2C[C@@H](C)CC(O)[C@]2(CCCN)C1O (stereo partly specified)
Result: inactive

Query: Could you please tell me the result logged for COC(=O)/C(=N/NC(C)(C)C)C(C(=O)C=C(C)C)C(=O)C(=O)Nc1ccc(Cl)cc1C (stereo unspecified) in this assay?
Result: inactive

Query: Entry COc1cc2c(c(OC)c1OC)-c1ccc(SC)c(=O)cc1C(CC(=O)Oc1ccc([N+](=O)[O-])cc1)C2 (stereo unspecified) : call = ?
Result: active

Query: Field: outcome | Entry: [N-]=[N+]=Nc1nnc(CCCCc2nnc(N=[N+]=[N-])o2)o1
Result: inactive

Query: Status in this test for CCOC(=O)/C=C/c1c(C)[nH]c(=O)[nH]c1=O ?
Result: inactive

Query: Answer briefly: the call reported for O=C1c2ccccc2N2OC3(N4CCOCC4)CCCC3C12c1ccccc1 (stereo unspecified) in this assay.
Result: inactive
